# Target Entity: Bromodomain-containing protein 4 (Homo sapiens)
# Test Name: Inhibition of human BRD4-BD1 (49 to 170 residues) expressed in Escherichia coli BL21(DE3) using N-C:SGRG-K(Ac)-GG-K(Ac)-GLG-K(Ac)-GGA-K(Ac)-RHRKVGG-K(biotin) as substrate preincubated for 15 mins followed by substrate addition measured after 5 mins by AlphaScreen assay relative to control
# Set-up: concentration or dose not given beside the values
Grouping by measured inhibition is done with the following cut points: low group: < 40%; middle group: ≥ 40% and < 70%; high group: ≥ 70%

1) CN1CCN(CCCNc2c(N)c(=O)oc3ccccc23)CC1	low group
2) COc1ccc(C(=O)N(C)CCCNc2cc(=O)oc3ccccc23)cc1	middle group
3) CN(CCCNc1cc(=O)oc2ccccc12)C(=O)c1cccc(Cl)c1	high group
4) O=c1cc(NCCCn2ccnc2)c2ccccc2o1	middle group
5) O=c1oc2ccccc2c(NCCCN2CCOCC2)c1[N+](=O)[O-]	middle group
6) COc1cccc2cc(C(=O)N(C)C)c(=O)oc12	low group
7) O=C(CNc1cc(=O)oc2ccccc12)OCC(=O)c1ccc(Br)cc1	high group
8) CN(CCCNc1cc(=O)oc2ccccc12)C(=O)c1cccc(F)c1	high group
9) O=c1cc(NC2CCN(CCCc3ccccc3)CC2)c2ccc(Cl)cc2o1	low group
10) O=C(NCCNc1cc(=O)oc2ccccc12)c1ccco1	middle group

----------
This section presents compounds with their documented pIC50 values.
# Target Entity: Bromodomain-containing protein 4 (Homo sapiens, UniProt O60885)
# Test Name: Inhibition of human BRD4-BD1 (49 to 170 residues) expressed in Escherichia coli BL21(DE3) using N-C:SGRG-K(Ac)-GG-K(Ac)-GLG-K(Ac)-GGA-K(Ac)-RHRKVGG-K(biotin) as substrate preincubated for 15 mins followed by substrate addition measured after 5 mins by AlphaScreen assay
pIC50: −log10 of the molar value.
Metric: pIC50

1) Cc1ccc(-[n+]2c3ccccc3nc3ccc(N4CCOCC4)cc32)cc1	4.96
2) COc1ccc(C2=NN(C(=O)CCCC(=O)O)C(c3cn(-c4ccccc4)nc3-c3ccccc3)C2)cc1 (stereo not drawn)	5.27
3) CN(CCCNc1cc(=O)oc2ccccc12)C(=O)c1cccc(F)c1	5.09
